Tested on: DLD-1
Assay: NCI tumour cell line growth inhibition, 48 h
The source made the active and inactive calls. No stated cut-off is given here; in the data, active = GI50 up to about 1.1 µM and inactive = higher.
measured-property: GI50

Solved cases (4 shown):
Query: Input O=C1O[B-](c2ccccc2)(c2ccccc2)[NH2+]C1CS (stereo unspecified) , output reported GI50.
Response: 33 µM (inactive)

Query: Input `COc1ccc(CNc2cnc3cc(N)ccc3n2)cc1OC` , output reported GI50.
Response: > 100 µM (inactive)

Query: Input `Cc1c(O)c(=O)ccn1CCO` , output reported GI50.
Response: > 100 µM (inactive)

Query: Input CC(N)C(=O)c1ccc(O)cc1 (stereo unspecified) , output reported GI50.
Response: > 100 µM (inactive)

As a next step, examine the compound that follows.
Query: Input `Cc1ccc2nc(NC(=O)C(=O)CC(=O)c3cccc4ccccc34)sc2c1` , output reported GI50.
Response: 49.7 µM (inactive)

###

Tested on: NCI-H226
Assay: NCI tumour cell line growth inhibition, 48 h
Active and inactive are the calls of the source. Cut-off read from the data, not from the text of the source: active = GI50 up to about 1.1 µM and inactive = higher.
Please answer using one outcome listed in yes (1) = active, no (0) = inactive

// known answers, use as guide
Query: In this assay, the call recorded for `C=CCN(c1cc(OC)c2[nH]c(C(=O)OCC)c(C)c2c1[N+](=O)[O-])S(C)(=O)=O` was what?
Response: yes (1)

Query: In this assay, the call recorded for NC(CCc1ncc(-c2ccccc2)s1)C(=O)O (stereo not drawn) was what?
Response: no (0)

Others:
Query: In this assay, the call recorded for `CCOC(=O)C1=C(O)C(=O)c2cc(C)ccc2C1=O` was what?
Response: no (0)

Query: In this assay, the call recorded for `COC(=O)c1ccc2n1C1CC3CC(CC2C3)C1` was what?
Response: no (0)

###

System: DLD-1
Test: NCI tumour cell line growth inhibition, 48 h
Activity calls are given as the source filed them. No stated cut-off is given here; in the data, active = GI50 up to about 1.1 µM and inactive = higher.
Please answer using one outcome listed in active, inactive

Query: In this assay, the call recorded for `Cc1c(C(=O)c2ccccc2C(=O)O)c2ccccc2n1C` was what?
Response: inactive

Query: In this assay, the call recorded for CC(=O)OC1C[C@H]2C(OC(=O)c3ccccc3)C3C4(OC(C)=O)COC4C[C@H](OC(C)=O)[C@@]3(C)C(OC(C)=O)[C@H](OC(C)=O)C(=C1C)C2(C)C (some centres not stated) was what?
Response: inactive

Query: In this assay, the call recorded for `Cc1cc(C)nc(NS(=O)(=O)c2ccc(Nc3c4ccccc4nc4c(C(=O)N5CCN(CCO)CC5)cccc34)cc2)n1` was what?
Response: inactive

Query: In this assay, the call recorded for `Cc1c(/C=N/NC(=O)c2cc(Br)cc(Br)c2O)c(=O)n(-c2ccccc2)n1C` was what?
Response: inactive

Query: In this assay, the call recorded for CC1OC1C(=O)C1(O)C(C)C(O)C23OC2(C(O)c2c(O)cccc2C3=O)C1O (configuration not stated) [CERVICARCIN] was what?
Response: active

Others:
Query: In this assay, the call recorded for C/C=C(\C)C(=O)N1c2ccccc2CC1c1c(C)[nH]c2ccccc12 (configuration not stated) was what?
Response: inactive

Query: In this assay, the call recorded for COc1cc2c(cc1OC)C(=O)C(C1=C(SC(=N)N)C(=O)c3cc(OC)c(OC)cc31)C2 (configuration not stated) was what?
Response: inactive

Query: In this assay, the call recorded for CC1OC(OC2CCCc3c(O)c4c(c(O)c32)C(=O)c2ccccc2C4=O)CC(N)C1O (configuration not stated) was what?
Response: inactive

Query: In this assay, the call recorded for COc1cc2c3c(c1OCc1ccccc1)NCCC3NCC2 (configuration not stated) was what?
Response: inactive

Query: In this assay, the call recorded for `COc1nc2nccc-2c2occn12` was what?
Response: inactive

Query: In this assay, the call recorded for `CCOC(=O)C1=C(O)C(=O)c2cc(OC)ccc2C1=O` was what?
Response: inactive

Query: In this assay, the call recorded for `Cc1cc2c(=O)c3ccc(Cl)cc3[nH]c2c(C(N)=O)c1C` was what?
Response: inactive

###

System: M19-MEL
Test: NCI tumour cell line growth inhibition, 48 h
Active and inactive are the calls of the source. No stated cut-off is given here; in the data, active = GI50 up to about 1.1 µM and inactive = higher.
measured-property: GI50

Query: Input CC(C)N(C(=O)C12C3C4C1C1C4(C#N)C3C12C(=O)O)C(C)C (stereo not given) , output reported GI50.
Response: > 100 µM (inactive)

Query: Input CC1CN1P1(N2CC2C)=NP(N2CC2C)(N2CC2C)=NP(N2CC2C)(N2CC2C)=N1 (stereo not given) , output reported GI50.
Response: > 50 µM (inactive)

Query: Input NC(CCC(=O)NC(CSC(=O)N(O)c1ccccc1)C(=O)NCC(=O)O)C(=O)O (stereo not given) , output reported GI50.
Response: > 1000 µM (inactive)

Query: Input `NC(=O)C(=Cc1ccc(CP(=O)(O)O)cc1)C(N)=O` , output reported GI50.
Response: > 100 µM (inactive)

Query: Input C/C=C(\C)C(=O)N1c2ccccc2CC1c1c(C)[nH]c2ccccc12 (stereo not given) , output reported GI50.
Response: 61.7 µM (inactive)

Others:
Query: Input CCCCN(CCCC)CC(C(=O)Nc1ccc([N+](=O)[O-])cc1[N+](=O)[O-])/C(C)=N\NC(=S)NN (stereo not given) , output reported GI50.
Response: > 100 µM (inactive)

Query: Input CC1=C(N(C)C)C(=O)c2nc3n(c2C1=O)CCC3OC(N)=O (stereo not given) , output reported GI50.
Response: 1.7 µM (inactive)

Query: Input `COc1cc2c3c(c1OC)C(=O)C=C3N(S(=O)(=O)c1ccc(C)cc1)CC2` , output reported GI50.
Response: > 100 µM (inactive)

Query: Input `O=C(C#Cc1ccccc1)Nc1ccccc1CC(c1c[nH]c2ccccc12)c1c[nH]c2ccccc12` , output reported GI50.
Response: 16.4 µM (inactive)

Query: Input `Cc1c(O)c(=O)ccn1CCO` , output reported GI50.
Response: > 100 µM (inactive)

Query: Input COc1cc2c(cc1OC)C(=O)C(C1=C(SC(=N)N)C(=O)c3cc(OC)c(OC)cc31)C2 (stereo not given) , output reported GI50.
Response: > 100 µM (inactive)

Query: Input `Cc1c(C(=O)c2ccccc2C(=O)O)c2ccccc2n1C` , output reported GI50.
Response: > 100 µM (inactive)

Query: Input `Cc1cc2c(=O)c3ccc(Cl)cc3[nH]c2c(C(N)=O)c1C` , output reported GI50.
Response: > 100 µM (inactive)

Query: Input `CCOC(=O)C1=C(O)C(=O)c2cc(OC)ccc2C1=O` , output reported GI50.
Response: 20.7 µM (inactive)

Query: Input O=C1OC2C(O)COC2(O)C1(O)C(C[N+](=O)[O-])c1ccc(Cl)cc1 (stereo not given) , output reported GI50.
Response: 2.5 µM (inactive)

Query: Input CC(C)C(CCOS(=O)(=O)O)CCC(C)[C@H]1[C@@H](O)C(O)C2[C@]3(O)C[C@@H](O)C4(O)C[C@@H](O)CC[C@]4(C)C3CC[C@@]21C (stereo not given in full) , output reported GI50.
Response: > 100 µM (inactive)

Query: Input `O=S1(=O)CS(=O)(=O)OCCCCCO1` , output reported GI50.
Response: > 100 µM (inactive)

Query: Input [O-][S+]1c2ccccc2N=C(c2ccc3ccccc3c2)CC1c1ccccc1 (stereo not given) , output reported GI50.
Response: 17.9 µM (inactive)

Query: Input CCOC(=O)C1C(=O)C(=O)N2CCc3c([nH]c4ccccc34)C12 (stereo not given) , output reported GI50.
Response: > 100 µM (inactive)

Query: Input `COc1ccc(/C(Cl)=C/c2cc(OC)ccc2OC)cc1` , output reported GI50.
Response: 80 µM (inactive)

###

Tested on: 786-0
Assay: NCI tumour cell line growth inhibition, 48 h
Active and inactive are the calls of the source. Cut-off read from the data, not from the text of the source: active = GI50 up to about 1.1 µM and inactive = higher.
Please answer using one outcome listed in active, inactive

// known answers, use as guide
Query: In this assay, the call recorded for `Cc1nn(-c2ccccn2)c2c1C(SC#N)=C(C=O)CC2` was what?
Response: inactive

Query: In this assay, the call recorded for `COC(=O)Nc1nc2cc(NC(=O)c3ccc(I)cc3)ccc2[nH]1` was what?
Response: inactive

Others:
Query: In this assay, the call recorded for `CCOc1ccc2nc(NC(NC(=O)c3cccnc3)(C(F)(F)F)C(F)(F)F)sc2c1` was what?
Response: inactive

Query: In this assay, the call recorded for Nc1ncnc2c1ncn2C1OC(CSC(F)F)C(O)C1O (stereo not given) was what?
Response: inactive

Query: In this assay, the call recorded for COc1ccc(C2Oc3c(cccc3OC)C=C2[N+](=O)[O-])cc1OC (stereo not given) was what?
Response: inactive

Query: In this assay, the call recorded for `C[C@]12CC[C@H]3[C@@H](CC[C@]4(O)C[C@@H](O)CC[C@]34C=O)[C@@]1(O)CC[C@@H]2C1=CC(=O)OC1` was what?
Response: active

###

Listed compounds paired with reported GI50
Tested on: SNB-75
Test: NCI tumour cell line growth inhibition, 48 h
Active and inactive are the calls of the source. Cut-off read from the data, not from the text of the source: active = GI50 up to about 1.1 µM and inactive = higher.

Solved cases (5 shown):
Query: Input `CCOC(=O)C1=CNC2=N[C@H]3CCCC[C@@H]3N2C1=O` , output reported GI50.
Response: > 100 µM (inactive)

Query: Input `N#CC(C#N)=c1c2ccccc2c(=C(C#N)C#N)c2ccccc12` , output reported GI50.
Response: 18.1 µM (inactive)

Query: Input Cc1cc(=O)oc2cc(OCC(O)COC(C)C)ccc12 (stereo not given) , output reported GI50.
Response: > 100 µM (inactive)

Query: Input `COc1cc2c(SCCN(C)C)nc3ccccc3c2c2ccccc12` , output reported GI50.
Response: 2.51 µM (inactive)

Query: Input `O=S(=O)(/N=c1/[nH]c2ccccc2n1S(=O)(=O)c1ccccc1)c1ccccc1` , output reported GI50.
Response: 88.3 µM (inactive)

Others:
Query: Input `Cc1nn(-c2ccccn2)c2c1C(SC#N)=C(C=O)CC2` , output reported GI50.
Response: 15.3 µM (inactive)

Query: Input C[C@H]1[C@H](C)CC[C@]2(C(=O)O)CCC3(COC(=O)/C=C/c4ccc(O)cc4)C(=CCC4[C@@]5(C)CC[C@H](O)C(C)(C)C5CC[C@]43C)[C@H]12 (stereo not given in full) , output reported GI50.
Response: 10.2 µM (inactive)
